# protocolNotes: Primary qHTS for delayed death inhibitors of the malarial parasite plastid, 96 hour incubation
# experimentalSetup: P. falciparum luciferase reporter growth; series mostly up to 28.7 µM
In all, about 320,000 compounds went through this assay and about 22,000 (6.9%) were called active. Roughly 27% stayed inconclusive and do not appear here. Calls follow the shape of the dose curve; as a rule, active = well fitted inhibition curve with a large enough effect; inconclusive = small, poorly fitted or top-dose-only effect, or another doubt; inactive = no such curve, though single readings can be large or run the other way. For the sample, actives were picked, then their nearest neighbours and some compounds at random.
Labels: label 1 (active), label 0 (inactive)

O=C(Cc1cccc2ccccc12)NNC(=O)Nc1ccc(Cl)cc1 = label 0
CC(=O)N1CCN(CC(c2ccccc2)c2ccccc2)CC1 = label 0
COCCNC(=S)N(Cc1cccnc1)Cc1ccc(OC)c(OC)c1 = label 0
COc1cc(-c2c(-c3ccc4c(c3)OCO4)noc2C)ccc1F = label 0
Cc1onc(-c2ccccc2)c1C(=O)N=C(N)c1ccc(Cl)cc1 = label 0
CC(C)c1cc(C(=O)N/N=C/C(Br)=C/c2ccccc2)n[nH]1 = label 1
COc1ccccc1C1C(C(N)=O)=C(C)Nc2nc(CCCO)nn21 (configuration not stated) = label 0
CC(C)C(=O)N1CC(=O)Nc2ccc(F)cc2C1c1ccc(F)cc1 (configuration not stated) = label 0
CC(OC(=O)c1ccccc1NCCO)C(=O)Nc1ccnn1C(C)C (configuration not stated) = label 0
O=C1CN(C(=O)c2ccccc2F)C(c2ccc(F)cc2)c2cc(F)ccc2N1 (configuration not stated) = label 0
Cc1ccc(CN(Cc2cccnc2)C(=S)Nc2cccc(Cl)c2C)cc1 = label 0
CCCn1nnnc1NCc1ccc(CC)cc1 = label 0
C[C@H](NC(=O)C1CC(=O)N(c2ccc3c(c2)OCO3)C1)C(=O)NCc1ccco1 (some centres not stated) = label 0
CCC(CC)C(=O)N1CC(=O)Nc2ccc(Br)cc2C1c1ccccc1 (configuration not stated) = label 1
CCCCC(=O)Nc1c2c(nn1-c1ccc([N+](=O)[O-])cc1)CS(=O)(=O)C2 = label 0
COCCNC(=S)N(CCc1c(C)[nH]c2ccc(C)cc12)Cc1cccnc1 = label 1
CC(C)c1c(C(=O)N/N=C/c2ccccc2C(=O)O)nnn1-c1nonc1N = label 0
Cc1cc(-c2n[nH]c(=S)n2/N=C/C(Br)=C/c2ccccc2)n[nH]1 = label 0
CC(/C=N/NC(=O)c1cc(-c2ccc3ccccc3c2)n[nH]1)=C\c1ccco1 = label 0
O=C(NC1CCCC1)C(c1ccc(Cl)cc1)N(C(=O)c1csnn1)C1CC1 (configuration not stated) = label 0
O=C(c1cccnc1)N1CCN(S(=O)(=O)c2cccs2)CC1 = label 0
Cc1ccc2c(cnn2C(=O)CCC(=O)NC2CCCC2)c1 = label 0

====

# protocolNotes: Primary qHTS for delayed death inhibitors of the malarial parasite plastid, 96 hour incubation
# experimentalSetup: P. falciparum luciferase reporter growth; series mostly up to 28.7 µM
# Description: The goal of this screen is to discover new antimalarial compounds that act by inhibiting the development of the apicoplast in the malarial parasite Plasmodium falciparum. […] We have developed a cell-based assay that measures parasite growth based on the expression of an integrated copy of a firefly luciferase reporter. […] Growth inhibition is detected by a decrease in luciferase activity. […]
Out of some 320,000 compounds screened, about 22,000 (6.9%) were called active. Roughly 27% stayed inconclusive and do not appear here. Calls come from the whole dose curve; as a rule, active = well fitted inhibition curve with a large enough effect; inconclusive = small, poorly fitted or top-dose-only effect, or another doubt; inactive = no such curve, though single readings can be large or run the other way. Only a selection was taken, and actives are over-represented in it overall.
Labels: active, inactive

Cc1ccc(C(=O)NNC(=O)C(C)Oc2ccc3ccccc3c2)o1 (configuration not stated) = inactive
CCn1cc(C(=O)OCC(=O)Nc2cccc(C)c2)c(=O)c2ccc(C)nc21 = inactive
Cc1ccc(S(=O)(=O)CCC(=O)OCC(=O)N(C)C2CCS(=O)(=O)C2)cc1 (configuration not stated) = inactive
Cc1n[nH]c(=O)c2c(NC(=O)CSc3ccccc3F)oc(C)c12 = inactive
COc1cc(OC)c(S(=O)(=O)Nc2ccccc2C(=O)O)cc1S(=O)(=O)Nc1ccccc1C(=O)O = inactive
CCOC(=O)C1CCN(Cc2nnc(-c3cccc(Br)c3)o2)CC1 = inactive
CCOC(=O)C1CCN(c2ncnc3c2oc2ccc(Br)cc23)CC1 = active
O=[N+]([O-])c1cc(C(F)(F)F)ccc1NCCc1ccncc1 = inactive
COc1ccc(NC(=O)CN(C)C(=O)Cc2coc3cc(C)c(C)cc23)cc1 = inactive
O=[N+]([O-])c1ccc(N2CCN(c3ccc(F)cc3)CC2)cn1 = inactive
COC(=O)c1ccc(/C=N/NC(=O)C(=O)N2CCCCCC2)cc1 = inactive
CCOC(=O)C(C)n1cnc2scc(-c3ccc(C)c(C)c3)c2c1=O (configuration not stated) = inactive
COc1ccc(S(=O)(=O)N(CC(=O)N/N=C/c2ccc(C(=O)O)cc2)Cc2ccccc2)cc1OC = inactive
COc1ccc(NC(=O)CSc2nc(SC)ns2)c(OC)c1 = inactive
CCCCn1c(N)c(N(CC(C)C)C(=O)c2cccc(S(=O)(=O)N3CCN(C(C)=O)CC3)c2)c(=O)[nH]c1=O = inactive
COCCNc1ccc(-c2n[nH]c(=O)c3ccccc23)cc1[N+](=O)[O-] = inactive
CCn1cnc2scc(-c3ccc(C)c(C)c3)c2c1=O = inactive
COc1ccccc1C(=O)NC(=O)COC(=O)C1CC1 = inactive
O=C(O)c1ccc(F)c(S(=O)(=O)Nc2ccccc2)c1 = inactive
COc1ccccc1-c1cnn2c(N3CCOCC3)cc(C)nc12 = inactive
CCOC(=O)C1CCN(c2ncnc3c2c(-c2ccccc2)cn3-c2ccc(C)cc2)CC1 = inactive
COc1ccc(Cl)cc1S(=O)(=O)Nc1cccc(C(=O)O)c1 = active

====

# protocolNotes: Primary qHTS for delayed death inhibitors of the malarial parasite plastid, 96 hour incubation
# experimentalSetup: P. falciparum luciferase reporter growth; series mostly up to 28.7 µM
The whole screen tested about 320,000 compounds, of which about 22,000 (6.9%) were called active. Inconclusive results (about 27%) are left out. The call rests on the fitted dose curve; in most records, active means well fitted inhibition curve with a large enough effect; inconclusive means small, poorly fitted or top-dose-only effect, or another doubt; inactive means no such curve, though single readings can be large or run the other way. The full list was thinned out, with actives kept by preference.
Labels: active, inactive

Cc1occc(=O)c1OCc1ccc(F)cc1 = inactive
CC(Sc1nnc(CNC(=O)c2ccccc2F)n1C)C(=O)Nc1nccs1 (stereo not given) = inactive
O=c1cc(-c2ccccc2)nc(N2CCCCC2)[nH]1 = inactive
CC(C)(c1ccccc1)c1ccc(OCCN)cc1 = inactive
CC(=O)OC(COc1ccc(F)cc1)Cn1cnc2ccccc21 (stereo not given) = inactive
COc1ccc2[nH]c(C(=O)N3CCN(C)CC3)c(C)c2c1 = inactive
CN(C)CC(O)COc1ccc(C(C)(C)c2ccc(OCC(O)CN(C)C)cc2)cc1 (stereo not given) = inactive
COC(=O)c1ccc(Nc2ncnc3sccc23)cc1 = inactive
COc1ccc(-c2cnc(SCCNC(=O)c3ccc4c(c3)OCO4)[nH]2)cc1 = inactive
c1ccc(-c2cc(N3CCCCC3)c3ccccc3n2)cc1 = active
O=C(C1CCCO1)N1CCN(S(=O)(=O)c2ccc(Br)cc2)CC1 (stereo not given) = inactive
COc1cc(C(=O)NCc2cc3cc(Cl)ccc3n2C)cc(OC)c1OC = inactive
Cn1c(=O)c2c(n(Cc3ccccc3)c1=O)NC(=O)C2CC(=O)N1CCc2ccccc2C1 (stereo not given) = active
CC(=O)Nc1ccc(S(=O)(=O)NC2Cc3ccccc3C2)cc1 = inactive
CC1(C)CC(=O)C(CC(=O)N2CCC(Cc3ccccc3)CC2)C(=O)C1 = inactive
CCCC(O)(c1ccc(OC)cc1)C(CN(C)C)c1ccccc1 (stereo not given) = active
COc1ccc(C(O)(C2CCCCC2)C(CN2CCCC2)c2ccccc2)cc1 (stereo not given) = inactive
O=C(Nc1ccc(NC(=O)c2ccc3c(c2)OCO3)cc1)c1cccc(Cl)c1 = inactive
Cc1cccc(OCC(=O)NCCNC(=O)c2cccnc2)c1 = inactive
CCOC(=O)c1sc(NC(=O)CSc2ncccn2)c(C#N)c1C = inactive
CC(=O)N=c1ncn(CC(COC(C)=O)OC(C)=O)c2nc[nH]c12 (stereo not given) = active
COC(=O)c1ccc(NC(=O)c2cc(Cl)ccc2OC)cc1 = inactive
CCC(=O)Nc1sc(C(=O)N2CCCCC2)c(C)c1C#N = active
COc1ccc(Cc2nnc(SCC(=O)Nc3ccc(C)c(Cl)c3)[nH]c2=O)cc1 = inactive
CCN1CCN(CC(=O)Nc2sc3c(c2C#N)CCC3)CC1 = inactive
Cc1ccc(NC(=O)C/C(N)=N/O)cc1Cl = inactive
COc1cccc(N2C(=O)CN(Cc3ccccc3)C2=S)c1 = active
COc1ccc(-c2nnc3n2CCCCC3)cc1 = inactive
O=S(=O)(Nc1ccc(-n2cnnn2)cc1)c1ccc(Cl)cc1 = inactive
O=C(CSc1ccc(-c2ccccc2)nn1)NCC1CCCO1 (stereo not given) = inactive
Cc1ccc(-c2noc(CNC(=O)c3ccoc3C)n2)cc1 = inactive
CCN(CC)C(=O)Oc1ccc(Br)cc1C(=O)Nc1ccc(F)c(Cl)c1 = active
O=C(CN1CCN(C2CCS(=O)(=O)C2)CC1)N1N=C(c2ccc(Cl)cc2)CC1c1ccco1 (stereo not given) = inactive
O=C(CSC1=Nc2ccccc2C2=NC(CC(=O)NCc3ccco3)C(=O)N12)NCc1ccco1 (stereo not given) = active
CC(C)C[C@H](NC(=O)C1CC(=O)N(c2ccc3c(c2)OCCO3)C1)C(=O)NC1CCCC1 (stereo not given in full) = inactive
CC(=O)OCC(COC(C)=O)OC(C)=O = inactive
O=C(CC1N=C2c3ccccc3N=C(SCc3ccccc3Cl)N2C1=O)NCc1ccco1 (stereo not given) = inactive
Cc1ccc(CN2CC(C(=O)N3CCN(S(=O)(=O)c4ccccc4)CC3)CC2=O)cc1 (stereo not given) = inactive
Cc1ccc(CNC(=O)c2cccc3c2C(=O)c2ccc(N4CCC(C)CC4)cc2S3(=O)=O)cc1 = inactive
Cc1ccc(C(=O)Nc2nc(N)n(-c3ccccc3)n2)cc1 = inactive
COc1ccc(-c2cc(C(=O)N3CCN(c4ccc(F)cc4)CC3)no2)cc1 = inactive
COc1ccc(-n2cnnc2SCC(=O)Nc2cccc(S(N)(=O)=O)c2)cc1 = inactive
COc1cccc(C(=O)NC(=O)Nc2nc(C)cc(C(F)(F)F)n2)c1 = inactive
O=C(COc1ccccc1Cl)Nc1ccccc1C(=O)NC1CC1 = inactive
CCN(CC)C(=O)C(=O)Nc1cccc(Br)c1 = inactive
